testedTarget: DNA (cytosine-5)-methyltransferase 3A (Homo sapiens, UniProt Q9Y6K1)
Sequence (Q9Y6K1 whole entry, looked up, the tested form may be a part): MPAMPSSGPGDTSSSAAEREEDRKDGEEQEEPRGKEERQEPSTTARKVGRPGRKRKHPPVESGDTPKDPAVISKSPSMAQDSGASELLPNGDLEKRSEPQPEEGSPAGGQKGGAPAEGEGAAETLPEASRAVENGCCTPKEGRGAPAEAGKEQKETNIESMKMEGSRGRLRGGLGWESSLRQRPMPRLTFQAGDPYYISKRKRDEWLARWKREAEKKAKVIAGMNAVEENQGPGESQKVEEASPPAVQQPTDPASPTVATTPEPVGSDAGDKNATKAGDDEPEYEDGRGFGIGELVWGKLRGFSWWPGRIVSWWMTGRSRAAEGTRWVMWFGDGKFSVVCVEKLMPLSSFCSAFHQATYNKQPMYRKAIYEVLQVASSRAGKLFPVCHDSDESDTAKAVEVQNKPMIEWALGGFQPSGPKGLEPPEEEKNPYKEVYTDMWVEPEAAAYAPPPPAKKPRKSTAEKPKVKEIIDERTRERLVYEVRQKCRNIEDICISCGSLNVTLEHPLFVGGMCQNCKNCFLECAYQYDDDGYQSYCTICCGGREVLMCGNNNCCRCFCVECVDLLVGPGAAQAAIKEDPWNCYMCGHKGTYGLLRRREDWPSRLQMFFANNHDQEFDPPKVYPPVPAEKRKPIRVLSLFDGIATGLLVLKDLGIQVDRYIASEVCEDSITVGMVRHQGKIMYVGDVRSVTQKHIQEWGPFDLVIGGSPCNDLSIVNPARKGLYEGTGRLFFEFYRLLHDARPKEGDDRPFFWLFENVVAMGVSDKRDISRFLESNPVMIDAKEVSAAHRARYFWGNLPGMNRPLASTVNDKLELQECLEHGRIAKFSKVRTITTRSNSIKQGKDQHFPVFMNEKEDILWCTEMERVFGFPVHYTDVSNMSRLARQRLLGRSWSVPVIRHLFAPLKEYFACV
assay: Inhibition of human DNMT3A catalytic domain using AdoMet assessed as reduction of methylation in 5'-biotin/3' 6-carboxyfluorescein labeled DNA duplex at CpG site at 10 uM after 1 hr by fluorescence assay relative to control
quantityName: inhibition (%)
The reply should be a number in %, with the unit left off.

Below: 5 compounds and their reported inhibition.
c1ccc(CCCNc2ncnc3cc(OCC4CCN(c5ccnc6ccccc56)CC4)ccc23)cc1	0
CCCNc1ncnc2cc(OCC3CCN(CCNc4ccnc5ccccc45)CC3)ccc12	28
c1ccc2c(CCCNc3ncnc4cc(OCC5CCN(CCNc6ccnc7ccccc67)CC5)ccc34)cccc2c1	96
Clc1ccccc1CCNc1ncnc2cc(OCC3CCN(CCNc4ccnc5ccccc45)CC3)ccc12	10
CC(C)c1ccc(CCNc2ncnc3cc(OCC4CCN(CCNc5ccnc6ccccc56)CC4)ccc23)cc1	53

### Prompt Give its inhibition value. Item: "c1ccc(CCCNc2ncnc3cc(OCC4CCN(CCNc5ccc6ccccc6c5)CC4)ccc23)cc1"
### Response 0

### Prompt Give its inhibition value. Item: "c1ccc(CCCNc2ncnc3cc(OCC4CCN(CCNc5cccc6ncccc56)CC4)ccc23)cc1"
### Response 50

### Prompt Give its inhibition value. Item: "c1ccc2c(NCCNc3ncnc4cc(OCC5CCN(CCNc6ccnc7ccccc67)CC5)ccc34)cccc2c1"
### Response 91

### Prompt Give its inhibition value. Item: "Cc1cc(NCCN2CCC(COc3ccc4c(NCCCc5ccccc5)ncnc4c3)CC2)ccn1"
### Response 26

* * *

testedTarget: DNA (cytosine-5)-methyltransferase 1 (Homo sapiens)
Sequence (P26358 whole entry): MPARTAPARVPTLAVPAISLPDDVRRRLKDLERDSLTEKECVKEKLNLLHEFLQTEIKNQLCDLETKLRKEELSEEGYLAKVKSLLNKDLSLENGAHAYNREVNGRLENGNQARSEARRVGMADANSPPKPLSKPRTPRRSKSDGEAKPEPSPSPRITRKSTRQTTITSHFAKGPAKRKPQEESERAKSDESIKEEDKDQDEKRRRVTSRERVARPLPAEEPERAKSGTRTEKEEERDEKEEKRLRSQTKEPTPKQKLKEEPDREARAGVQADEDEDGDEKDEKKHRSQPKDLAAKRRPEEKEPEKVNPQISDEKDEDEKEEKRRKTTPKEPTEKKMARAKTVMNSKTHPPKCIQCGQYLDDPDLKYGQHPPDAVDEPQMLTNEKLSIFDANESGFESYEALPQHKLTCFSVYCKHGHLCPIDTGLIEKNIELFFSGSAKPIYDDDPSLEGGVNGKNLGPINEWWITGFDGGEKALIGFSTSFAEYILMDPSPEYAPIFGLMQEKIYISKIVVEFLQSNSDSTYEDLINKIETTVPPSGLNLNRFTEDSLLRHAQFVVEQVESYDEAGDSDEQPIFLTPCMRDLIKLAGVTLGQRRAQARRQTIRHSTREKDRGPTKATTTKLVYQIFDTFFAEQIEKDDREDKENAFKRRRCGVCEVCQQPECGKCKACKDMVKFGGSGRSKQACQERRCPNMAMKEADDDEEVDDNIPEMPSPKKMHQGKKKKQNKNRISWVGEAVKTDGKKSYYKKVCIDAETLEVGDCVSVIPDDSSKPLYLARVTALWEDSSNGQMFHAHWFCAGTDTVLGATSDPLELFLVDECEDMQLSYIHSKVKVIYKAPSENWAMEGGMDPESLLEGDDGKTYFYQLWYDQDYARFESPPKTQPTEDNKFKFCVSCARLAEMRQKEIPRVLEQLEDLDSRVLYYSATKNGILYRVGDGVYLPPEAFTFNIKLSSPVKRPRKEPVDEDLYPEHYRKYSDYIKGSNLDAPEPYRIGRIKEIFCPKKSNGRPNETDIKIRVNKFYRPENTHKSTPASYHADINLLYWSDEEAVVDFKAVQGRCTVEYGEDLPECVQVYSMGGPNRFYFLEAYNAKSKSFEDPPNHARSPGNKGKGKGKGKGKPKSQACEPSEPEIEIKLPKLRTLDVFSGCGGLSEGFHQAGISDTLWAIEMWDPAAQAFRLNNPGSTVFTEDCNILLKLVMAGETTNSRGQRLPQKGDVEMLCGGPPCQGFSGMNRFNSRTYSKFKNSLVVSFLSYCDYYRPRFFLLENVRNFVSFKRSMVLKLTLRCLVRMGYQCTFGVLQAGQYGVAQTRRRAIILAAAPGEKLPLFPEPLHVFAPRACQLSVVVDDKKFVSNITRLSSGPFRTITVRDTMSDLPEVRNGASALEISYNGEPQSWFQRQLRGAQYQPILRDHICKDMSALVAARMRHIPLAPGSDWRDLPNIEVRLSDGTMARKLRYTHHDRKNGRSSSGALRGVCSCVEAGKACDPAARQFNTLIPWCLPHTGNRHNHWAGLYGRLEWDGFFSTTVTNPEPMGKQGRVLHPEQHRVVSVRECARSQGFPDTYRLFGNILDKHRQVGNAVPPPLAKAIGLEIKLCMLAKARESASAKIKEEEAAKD
assay: Inhibition of full length His-tagged human DNMT1 using SAM/[methyl-3H]SAM assessed as reduction of methylation in biotinylated hemimethylated DNA duplex at 100 uM after 1 hr by scintillation counting method relative to control
quantityName: inhibition (%)
The reply should be a number in %, with the unit left off.

c1ccc(CCCNc2ncnc3cc(OCC4CCN(CCNc5ccnc6ccccc56)CC4)ccc23)cc1	91
NS(=O)(=O)c1ccc(CCNc2ncnc3cc(OCC4CCN(CCNc5ccnc6ccccc56)CC4)ccc23)cc1	100
COc1ccc(CCNc2ncnc3cc(OCC4CCN(CCNc5ccnc6ccccc56)CC4)ccc23)cc1	100
Clc1cccc(CCNc2ncnc3cc(OCC4CCN(CCNc5ccnc6ccccc56)CC4)ccc23)c1	97
Cc1cc(NCCN2CCC(COc3ccc4c(NCCCc5ccccc5)ncnc4c3)CC2)c2ccccc2n1	100
Fc1ccc2nccc(NCCN3CCC(COc4ccc5c(NCCCc6ccccc6)ncnc5c4)CC3)c2c1	79

### Prompt Give its inhibition value. Item: "COc1cc2nccc(NCCN3CCC(COc4ccc5c(NCCCc6ccccc6)ncnc5c4)CC3)c2cc1OC"
### Response 81

### Prompt Give its inhibition value. Item: "CN(C)c1ccc(NCCN2CCC(COc3ccc4c(NCCCc5ccccc5)ncnc4c3)CC2)c2ccccc12"
### Response 15

### Prompt Give its inhibition value. Item: "c1ccc(CCCNc2ncnc3cc(OCCN4CCN(CCNc5ccnc6ccccc56)CC4)ccc23)cc1"
### Response 83

### Prompt Give its inhibition value. Item: "c1ccc(CCCNc2ncnc3cc(OCC4CCN(CCNc5cccc6cnccc56)CC4)ccc23)cc1"
### Response 0

### Prompt Give its inhibition value. Item: "c1ccc(CCCNc2ncnc3cc(OCC4CCN(CCNc5cccc6ncccc56)CC4)ccc23)cc1"
### Response 0

### Prompt Give its inhibition value. Item: "CCCNc1ncnc2cc(OCC3CCN(CCNc4ccnc5ccccc45)CC3)ccc12"
### Response 95

### Prompt Give its inhibition value. Item: "c1ccc(CCCNc2ncnc3cc(OCC4CCN(CCNc5ccc6ncccc6c5)CC4)ccc23)cc1"
### Response 16

### Prompt Give its inhibition value. Item: "Cn1ccc2cc(NCCN3CCC(COc4ccc5c(NCCCc6ccccc6)ncnc5c4)CC3)ccc21"
### Response 50

### Prompt Give its inhibition value. Item: "Oc1ccc2c(NCCN3CCC(COc4ccc5c(NCCCc6ccccc6)ncnc5c4)CC3)ccnc2c1"
### Response 59

### Prompt Give its inhibition value. Item: "FC(F)(F)c1ccc2c(NCCN3CCC(COc4ccc5c(NCCCc6ccccc6)ncnc5c4)CC3)ccnc2c1"
### Response 48

### Prompt Give its inhibition value. Item: "COCn1ccc(NCCN2CCC(COc3ccc4c(NCCCc5ccccc5)ncnc4c3)CC2)nc1=O"
### Response 11

### Prompt Give its inhibition value. Item: "Clc1ccc2c(NCCN3CCC(COc4ccc5c(NCCCc6ccccc6)ncnc5c4)CC3)ccnc2c1"
### Response 79

* * *

Recorded inhibition by entry
testedTarget: UniProt:Q9Y6K1
assay: Inhibition of human DNMT3A catalytic domain using AdoMet assessed as reduction of methylation in 5'-biotin/3' 6-carboxyfluorescein labeled DNA duplex at CpG site at 32 uM after 1 hr by fluorescence assay relative to control
The reply should be a number in %, with the unit left off.

Below: 2 molecules and their reported inhibition.
Clc1ccc2c(NCCN3CCC(COc4ccc5c(NCCCc6ccccc6)ncnc5c4)CC3)ccnc2c1	62
c1ccc(CCCNc2ncnc3cc(OCCCNCCNc4ccnc5ccccc45)ccc23)cc1	85

### Prompt Give its inhibition value. Item: "NS(=O)(=O)c1ccc(CCNc2ncnc3cc(OCC4CCN(CCNc5ccnc6ccccc56)CC4)ccc23)cc1"
### Response 93

### Prompt Give its inhibition value. Item: "c1ccc(CCCNc2ncnc3cc(OCC4CCN(CCNc5ccc6ncccc6c5)CC4)ccc23)cc1"
### Response 60

### Prompt Give its inhibition value. Item: "c1ccc(CCCNc2ncnc3cc(OCC4CCN(CCNc5cccc6ncccc56)CC4)ccc23)cc1"
### Response 60

### Prompt Give its inhibition value. Item: "COc1ccc(CCNc2ncnc3cc(OCC4CCN(CCNc5ccnc6ccccc56)CC4)ccc23)cc1"
### Response 100

### Prompt Give its inhibition value. Item: "CC(C)c1ccc(CCNc2ncnc3cc(OCC4CCN(CCNc5ccnc6ccccc56)CC4)ccc23)cc1"
### Response 83

### Prompt Give its inhibition value. Item: "COc1cc2nccc(NCCN3CCC(COc4ccc5c(NCCCc6ccccc6)ncnc5c4)CC3)c2cc1OC"
### Response 95

### Prompt Give its inhibition value. Item: "O=c1c2ccc(OCC3CCN(CCNc4ccnc5ccccc45)CC3)cc2ncn1CCCc1ccccc1"
### Response 99

* * *

testedTarget: DNA (cytosine-5)-methyltransferase 1 (Homo sapiens)
assay: Inhibition of full length His-tagged human DNMT1 using SAM/[methyl-3H]SAM assessed as reduction of methylation in biotinylated hemimethylated DNA duplex at 100 uM after 1 hr by scintillation counting method relative to control
I would appreciate it if you labelled entries T when inhibition is 90% or higher, otherwise F.

Nc1ccc(NCCN2CCC(COc3ccc4c(NCCCc5ccccc5)ncnc4c3)CC2)cc1	F
c1ccc(CCCNc2ncnc3cc(OCC4CCN(c5ccnc6ccccc56)CC4)ccc23)cc1	F
c1ccc(CN2CCN(CCNc3ncnc4cc(OCC5CCN(CCNc6ccnc7ccccc67)CC5)ccc34)CC2)cc1	F
Cc1cc(NCCN2CCC(COc3ccc4c(NCCCc5ccccc5)ncnc4c3)CC2)c2cccc(C)c2n1	T
c1ccc(-c2ccc(CNc3ncnc4cc(OCC5CCN(CCNc6ccnc7ccccc67)CC5)ccc34)cc2)cc1	F
Clc1ccccc1CCNc1ncnc2cc(OCC3CCN(CCNc4ccnc5ccccc45)CC3)ccc12	T
c1ccc(CCCNc2ncnc3cc(OCC4CCN(CCNc5cncc6ccccc56)CC4)ccc23)cc1	F
c1ccc(CCCNc2ncnc3cc(OCC4CCN(CCNc5ccncc5)CC4)ccc23)cc1	F
c1ccc(CCNc2ncnc3cc(OCC4CCN(CCNc5ccnc6ccccc56)CC4)ccc23)cc1	T

Here is the next item to consider.
### Prompt Given "c1ccc2c(CCCNc3ncnc4cc(OCC5CCN(CCNc6ccnc7ccccc67)CC5)ccc34)cccc2c1" , state whether its inhibition is at least 90%.
### Response T

* * *

Recorded inhibition by entry
testedTarget: DNA (cytosine-5)-methyltransferase 3A (Homo sapiens, UniProt Q9Y6K1)
assay: Inhibition of human DNMT3A catalytic domain using AdoMet assessed as reduction of methylation in 5'-biotin/3' 6-carboxyfluorescein labeled DNA duplex at CpG site at 32 uM after 1 hr by fluorescence assay relative to control
The reply should be a number in %, with the unit left off.

Below: 10 compounds and their reported inhibition.
Clc1cccc(CCNc2ncnc3cc(OCC4CCN(CCNc5ccnc6ccccc56)CC4)ccc23)c1	98
Cc1cc(Nc2ccc(NC(=O)c3ccc(Nc4ccnc5ccccc45)cc3)cc2)nc(N)n1	72
O=[N+]([O-])c1ccc(CCNc2ncnc3cc(OCC4CCN(CCNc5ccnc6ccccc56)CC4)ccc23)cc1	74
Oc1ccc2c(NCCN3CCC(COc4ccc5c(NCCCc6ccccc6)ncnc5c4)CC3)ccnc2c1	72
c1ccc(CCCNc2ncnc3cc(OCC4CCN(c5ccnc6ccccc56)CC4)ccc23)cc1	0
COc1ccc2c(NCCN3CCC(COc4ccc5c(NCCCc6ccccc6)ncnc5c4)CC3)ccnc2c1	80
Oc1cc2nccc(NCCN3CCC(COc4ccc5c(NCCCc6ccccc6)ncnc5c4)CC3)c2cc1O	93
Cc1cc(NCCN2CCC(COc3ccc4c(NCCCc5ccccc5)ncnc4c3)CC2)c2cccc(C)c2n1	82
c1ccc(CCNc2ncnc3cc(OCC4CCN(CCNc5ccnc6ccccc56)CC4)ccc23)cc1	99
c1ccc(CCCNc2ncnc3cc(OCC4CCN(CCNc5cncc6ccccc56)CC4)ccc23)cc1	49

### Prompt Give its inhibition value. Item: "c1ccc(-c2ccc(CNc3ncnc4cc(OCC5CCN(CCNc6ccnc7ccccc67)CC5)ccc34)cc2)cc1"
### Response 83

### Prompt Give its inhibition value. Item: "c1ccc(CCCNc2ncnc3cc(OCC4CCN(CCNc5cccc6cnccc56)CC4)ccc23)cc1"
### Response 0

### Prompt Give its inhibition value. Item: "c1ccc(NCCNc2ncnc3cc(OCC4CCN(CCNc5ccnc6ccccc56)CC4)ccc23)cc1"
### Response 95

### Prompt Give its inhibition value. Item: "Clc1ccc(CCNc2ncnc3cc(OCC4CCN(CCNc5ccnc6ccccc56)CC4)ccc23)cc1"
### Response 100

### Prompt Give its inhibition value. Item: "c1ccc(CCCNc2ncnc3cc(OCC4CCN(CCNc5cnc6ccccc6c5)CC4)ccc23)cc1"
### Response 45
